Here, each record is paired with measured combination Emax data.
system: A101D (Melanoma); test: combination Emax (second highest fraction inhibited in the dose matrix, 72 h); higher = more inhibition; extreme values may be limits of the assay

- compound: "CN(CCO)CC[C@H](CSc1ccccc1)Nc1ccc(S(=O)(=O)NC(=O)c2ccc(N3CCC([C@@H](O)c4ccccc4-c4ccc(Cl)cc4)CC3)cc2)cc1S(=O)(=O)C(F)(F)F [AZD4320] + CCN(CCO)CCCOc1ccc2c(Nc3cc(CC(=O)Nc4cccc(F)c4)[nH]n3)ncnc2c1 [AZD2811] (first compound max 1 µM, 7x7, partner max 1 µM)"
  combination Emax: 0.667
- compound: "CC(=O)c1c(C)c2cnc(Nc3ccc(N4CCNCC4)cn3)nc2n(C2CCCC2)c1=O [Palbociclib] + CC1(C)CCC(CN2CCN(c3ccc(C(=O)NS(=O)(=O)c4ccc(NCC5CCOCC5)c([N+](=O)[O-])c4)c(Oc4cnc5[nH]ccc5c4)c3)CC2)=C(c2ccc(Cl)cc2)C1 [Venetoclax] (first compound max 10 µM, 7x7, partner max 1 µM)"
  combination Emax: 0.424
- compound: "Cc1c2c(nn1C)CSCc1cc(n(C)n1)CSc1cc(c3ccccc3c1)OCCCc1c(C(=O)O)n(C)c3c-2c(Cl)ccc13 [AZD5991] + CCN(CCO)CCCOc1ccc2c(Nc3cc(CC(=O)Nc4cccc(F)c4)[nH]n3)ncnc2c1 [AZD2811] (first compound max 1 µM, 7x7, partner max 1 µM)"
  combination Emax: 0.998
- compound: "COc1cccc(OCCCN)c1-c1cc(Nc2cnc(C#N)cn2)n[nH]1 [Prexasertib] + C[C@@H]1COCCN1C2=NC(=NC(=C2)C3(CC3)[S@](=N)(=O)C)C4=C5C=CNC5=NC=C4 [AZD6738] (first compound max 1 µM, 7x7, partner max 10 µM)"
  combination Emax: 0.773
- compound: "COc1nnc2ccc(N3CCC(c4ccc(OCCN5CCN(C)C(=O)[C@H]5C)cc4)CC3)nn12 [AZD5153] + CC1(C)CCC(CN2CCN(c3ccc(C(=O)NS(=O)(=O)c4ccc(NCC5CCOCC5)c([N+](=O)[O-])c4)c(Oc4cnc5[nH]ccc5c4)c3)CC2)=C(c2ccc(Cl)cc2)C1 [Venetoclax] (first compound max 1 µM, 7x7, partner max 1 µM)"
  combination Emax: 0.67
- compound: "CCN(CCO)CCCOc1ccc2c(Nc3cc(CC(=O)Nc4cccc(F)c4)[nH]n3)ncnc2c1 [AZD2811] + C=CCn1c(=O)c2cnc(Nc3ccc(N4CCN(C)CC4)cc3)nc2n1-c1cccc(C(C)(C)O)n1 [AZD1775] (first compound max 1 µM, partner max 1 µM)"
  combination Emax: 0.427

====

tested on: JVM-2 (B-Cell Non-Hodgkin's Lymphoma); experiment: Bliss excess, mean over the matrix (fraction); higher = more synergy;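 further: after 72 h of two-drug dosing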

- compound: "Cn1cnc2c(F)c(Nc3ccc(Br)cc3Cl)c(C(=O)NOCCO)cc21 [Selumetinib] + CC(C)n1c(=O)n(C)c2cnc3cc(F)c(-c4ccc(OCCCN5CCCCC5)nc4)cc3c21 [AZD1390] (first compound max 10 µM, 7x7, partner max 0.3 µM)"
  Bliss excess: 0.0102
- compound: "CN(CCO)CC[C@H](CSc1ccccc1)Nc1ccc(S(=O)(=O)NC(=O)c2ccc(N3CCC([C@@H](O)c4ccccc4-c4ccc(Cl)cc4)CC3)cc2)cc1S(=O)(=O)C(F)(F)F [AZD4320] + C[C@@H]1COCCN1C2=NC(=NC(=C2)C3(CC3)[S@](=N)(=O)C)C4=C5C=CNC5=NC=C4 [AZD6738] (first compound max 1 µM, 7x7, partner max 10 µM)"
  Bliss excess: 0.0102
- compound: "CC1(C)CCC(CN2CCN(c3ccc(C(=O)NS(=O)(=O)c4ccc(NCC5CCOCC5)c([N+](=O)[O-])c4)c(Oc4cnc5[nH]ccc5c4)c3)CC2)=C(c2ccc(Cl)cc2)C1 [Venetoclax] + Cc1cc2ncnn2cc1Nc1ncc2c(n1)n(C1CCOCC1)c(=O)n2C [AZD7648] (first compound max 1 µM, 7x7, partner max 10 µM)"
  Bliss excess: -0.025
- compound: "COc1cc2ncnc(Nc3ccc(F)c(Cl)c3)c2cc1OCCCN1CCOCC1 [Gefitinib] + CC(C)n1c(=O)n(C)c2cnc3cc(F)c(-c4ccc(OCCCN5CCCCC5)nc4)cc3c21 [AZD1390] (first compound max 10 µM, 7x7, partner max 0.3 µM)"
  Bliss excess: -0.0645
- compound: "CN(CCO)CC[C@H](CSc1ccccc1)Nc1ccc(S(=O)(=O)NC(=O)c2ccc(N3CCC([C@@H](O)c4ccccc4-c4ccc(Cl)cc4)CC3)cc2)cc1S(=O)(=O)C(F)(F)F [AZD4320] + CN(C)CCCOc1ccc(-c2ccc3ncc4c(c3c2)n(C2CCOCC2)c(=O)n4C)cn1 [AZD0156] (first compound max 1 µM, 7x7, partner max 1 µM)"
  Bliss excess: 0.0248
- compound: "Cn1cnc2c(F)c(Nc3ccc(Br)cc3Cl)c(C(=O)NOCCO)cc21 [Selumetinib] + CCN(CCO)CCCOc1ccc2c(Nc3cc(CC(=O)Nc4cccc(F)c4)[nH]n3)ncnc2c1 [AZD2811] (first compound max 10 µM, 7x7, partner max 1 µM)"
  Bliss excess: 0.0315
- compound: "C[C@@H]1COCCN1c1cc(C2([S@](C)(=N)=O)CC2)nc(-c2ccnc3[nH]ccc23)n1 [AZD6738] + O=C(c1cc(Cc2n[nH]c(=O)c3ccccc23)ccc1F)N1CCN(C(=O)C2CC2)CC1 [Olaparib] (first compound max 10 µM, 7x7, partner max 10 µM)"
  Bliss excess: -0.0708

Measured values drawn from the supplement of paper PMC11061612 for this set.
